- Target System: Shiga toxin 2 (Escherichia coli O157:H7) (UniProt P09385+P09386)
- Assay Comment: E. coli 0.157:H7 Shiga Toxin SOP - stx2 screening assay
- Type: functional
- Design: scale not given: direction of the effect not stated beside the values
- Setup Conditions: 30 µM
Observable: Percent Effect (%)

O=C(COCC1CC1)N1CCCC(n2ccnc2)C1 (stereo unspecified)	-26.2
CC(C)Nc1ccc2nc(C3CCN(C(C)C)CC3)nn2c1	-8.89
O=C(CN1CCC(c2ccnn2CCO)CC1)NCc1cccs1	-10
CCC(OC)C(=O)N1CCc2nc(NC)nc(C(=O)N3CCCC3)c2C1 (stereo unspecified)	-1.38
CC(NC(=O)CSCC(=O)Nc1ccccc1)c1ccccc1 (stereo unspecified)	16.8
C[S+]([O-])c1nncn1CC(=O)c1cccc(Cl)c1 (stereo unspecified)	-33.8
CCCc1ncc(C(=O)N2CCOC(c3nc(C)n[nH]3)C2)s1 (stereo unspecified)	2.31
Cc1ccc(CNCc2nnc3n2CC(C(F)(F)F)CC3)cc1 (stereo unspecified)	-16
Cc1nc(CN2CCO[C@@H]3CN(C(=O)NC(C)C)CC[C@@H]3C2)cs1	-4.73
O=C(NCCNc1cnccn1)C1CCN(C(=O)N2CCCC2)CC1	-37.5
Cc1n[nH]c(=O)c2c(NC(=O)CN3CCC(O)CC3)oc(C)c12	-66.6
c1cnn(C2CN(Cc3nc(-c4ccsc4)no3)C2)c1	23
Cc1ccc(CNC(=O)NCc2cccnc2N(C)C)s1	1.79
Cc1ccc2c(ccn2CCC(=O)NC[C@@H]2CCCN3CCCC[C@H]23)c1	-5.27
CN(C)C(=O)CNC(=O)CCn1ncc2c(Cl)cccc21	-27.9
Cc1ccc(C(=O)N2CCSCC2)cc1NC(=O)Cn1cncn1	-22.8
CNC(=O)C(NC(=O)c1nccn2ccnc12)c1ccc(F)c(F)c1 (stereo unspecified)	14.2
O=C(CCc1cscn1)N1CCCC1c1noc(C2CC2)n1 (stereo unspecified)	22.4
Cc1oc(C)c(C(=O)N2CCCN(Cc3cscn3)CC2)c1C	26.2
CCc1cc(NCc2ccccc2CN2CCCC2)n2ncnc2n1	-25.4
CSCc1cccc(S(=O)(=O)NCCCn2ccnc2)c1	-15.1
CCN(CC)Cc1cn2c(n1)CN(C(=O)c1cnccn1)CC2	5.28
COCCC(=O)N1CCc2cc(Cl)cc(Cl)c2C1	-18.1
CN(C)CCO[C@H]1CN(Cc2cccc(C#N)c2)[C@@H]2COC[C@H]12	-21.2
Cc1ccc(CN2CCC3(CC2)C(=O)N(C)c2ccccc23)s1	-2.26
CCn1cnnc1CNC(=O)c1cc(Cl)ccc1OC	-24.3
O=C(c1ccnnc1)N1C[C@@H](OCC2CCOCC2)[C@H]2OCCC[C@H]21	-14.6
COc1cc(NC(=O)Cn2ccc3sc(C)cc3c2=O)cc(OC)c1	0.557
CCc1nc(CC(=O)Nc2cnn(CC3CCCO3)c2)cs1 (stereo unspecified)	-10.7
Cn1ccnc1COc1ccc(CN2CCN(CCO)CC2)cc1	-50.7
CNc1cc(C)nc(C2CN(Cc3ccc(C)nc3)CCO2)c1 (stereo unspecified)	3.79
CCN(Cc1nc2c(cnn2C)c(=O)[nH]1)c1cccc(F)c1	-7.65
Cn1cc(C2CCCN2C(=O)CCCOCc2ccccc2)cn1 (stereo unspecified)	-16.1
COCCN1CCC2(CCCN(c3ncccn3)C2)C1 (stereo unspecified)	-6.31
Cc1nn(C)c(N(C)C)c1CNCCNS(C)(=O)=O	17.7
Cc1oncc1C(=O)N1CCC2(CC1)CC(c1ccccc1)C(=O)N2C (stereo unspecified)	-15.3
Cc1nc(C)n(CC2CCCN2CCOc2ccc(C#N)cc2)n1 (stereo unspecified)	-0.486
COc1ccc2c(c1)CN(Cc1nc3ccsc3c(=O)[nH]1)CC2	10.8
CC(C)S(=O)(=O)NCC1CCCN(C(=O)c2ccc3c(c2)CCC3)C1 (stereo unspecified)	1.33
COCCc1noc(CNC2CCc3nc(C(C)C)nn3C2)n1 (stereo unspecified)	9.38
O=C(NC1CCC1)[C@@H]1C[C@@H]2CCN(Cc3ccncc3)C[C@H]2O1	1.98
